Test system: panel of cancer cell lines
test_description: Cell viability (CellTiter-Glo) dose-response across cancer cell line panel;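 note: after 72 h compound incubation with CellTiter-Glo ATP readout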
Type: cell-based, human
condition_label: Homo sapiens, HSC-4, HSC-4
pEC50: −log10 of the molar value.

{"smiles_input": "COCc1ccccc1NCc1ccc([C@H]2[C@@H](O)CCCc3cncn32)c(-c2ccccc2Cl)c1", "pEC50": 5.98}
{"smiles_input": "NS(=O)(=O)OC[C@@H]1C[C@@H](n2ccc3c(N[C@H]4CCc5ccccc54)ncnc32)C[C@@H]1O", "pEC50": 6.57}

---

System: panel of cancer cell lines
test_description: Cell viability (CellTiter-Glo) dose-response across cancer cell line panel;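 note: after 72 h compound incubation with CellTiter-Glo ATP readout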
Type: cell-based, human
condition_label: Homo sapiens, SK-MEL-5, cell line SK-MEL-5

{"molecule": "CC(C)C[C@H](NC(=O)[C@H](Cc1ccccc1)NC(=O)c1cnccn1)B(O)O [Bortezomib]", "test_system": "panel of cancer cell lines", "units_text": "nM", "EC50": 8.81}
